Tested on: HIV
Experiment: Antiviral assay, HIV-induced cytopathic effect in CEM cells (tetrazolium/formazan viability readout)
Type: cell-based
Conditions: Human immunodeficiency virus 1, CCRF-CEM, added 8 hours prior to infecting with HIV, read-out: IC₅₀
assay readout: IC50 (nM)
Give bare numbers, in nM.

# query: IC50 of entry CCOC(=O)CC(OP(=O)(OC[C@H]1O[C@@H](n2cc(C)c(=O)[nH]c2=O)C[C@@H]1N=[N+]=[N-])OC(CC(=O)OCC)c1ccc(OC(C)=O)cc1)c1ccc(OC(C)=O)cc1 (some centres unmarked) [AZT prodrug]
5

Now look at this entry.
Field request: IC50 | item: Cc1cn([C@H]2C[C@H](N=[N+]=[N-])[C@@H](CO)O2)c(=O)[nH]c1=O [AZT, 3'azido-3'deoxythymidine, reference compound]
5
